Target: CyPPO10 (Thermosynechococcus elongatus BP-1 PPO, SEQ ID NO: 2) variant R89A + F360M, MBP fusion (Thermosynechococcus vestitus, UniProt Q8DLV2, F360M/R89A)
Sequence (Q8DLV2 entry or part of it R89A/F360M): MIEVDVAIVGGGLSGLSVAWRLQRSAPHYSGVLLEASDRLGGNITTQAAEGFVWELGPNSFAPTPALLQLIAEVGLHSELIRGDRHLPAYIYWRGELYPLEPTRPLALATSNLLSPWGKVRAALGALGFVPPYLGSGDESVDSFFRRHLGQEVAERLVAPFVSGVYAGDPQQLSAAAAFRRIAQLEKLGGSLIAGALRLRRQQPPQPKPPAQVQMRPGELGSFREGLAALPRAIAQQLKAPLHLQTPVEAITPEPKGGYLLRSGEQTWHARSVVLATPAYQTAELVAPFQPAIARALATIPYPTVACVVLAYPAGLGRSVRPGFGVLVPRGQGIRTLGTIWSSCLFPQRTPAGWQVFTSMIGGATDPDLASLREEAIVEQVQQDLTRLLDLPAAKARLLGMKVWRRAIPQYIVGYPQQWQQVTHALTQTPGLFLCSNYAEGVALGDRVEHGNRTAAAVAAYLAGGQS
Assay: biochemical
Conditions: herbicide 0-5,000 nM, 50 μM substrate
Measure: pIC50
Give bare numbers, as −log10 of the molar value.

# pIC50 of C=CCOC(=O)C(C)(C)OC(=O)c1cc(-n2c(=O)cc(C(F)(F)F)n(C)c2=O)ccc1Cl [Butafenacil] = 6.17

====

Target: CyPPO10 (Thermosynechococcus elongatus BP-1 PPO, SEQ ID NO: 2) variant R89A + F360I, MBP fusion (Thermosynechococcus vestitus, UniProt Q8DLV2, F360I/R89A)
Sequence (Q8DLV2 entry or part of it R89A/F360I): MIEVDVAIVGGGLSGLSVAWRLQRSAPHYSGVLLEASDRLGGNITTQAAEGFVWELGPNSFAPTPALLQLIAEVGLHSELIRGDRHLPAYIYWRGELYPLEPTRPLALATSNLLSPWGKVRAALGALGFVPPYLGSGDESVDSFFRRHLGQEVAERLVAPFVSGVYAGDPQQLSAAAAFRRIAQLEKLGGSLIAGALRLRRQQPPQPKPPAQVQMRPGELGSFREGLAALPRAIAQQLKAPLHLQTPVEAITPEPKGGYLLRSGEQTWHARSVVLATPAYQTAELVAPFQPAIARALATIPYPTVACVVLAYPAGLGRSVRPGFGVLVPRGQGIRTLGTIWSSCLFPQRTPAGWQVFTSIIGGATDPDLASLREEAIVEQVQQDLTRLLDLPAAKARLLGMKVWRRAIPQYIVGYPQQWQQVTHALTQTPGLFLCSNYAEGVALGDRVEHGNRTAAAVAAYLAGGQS
Experiment: biochemical
Measure: IC50 (nM)
One number for each entry, in nM.

# IC50 of C=CCOC(=O)C(C)(C)OC(=O)c1cc(-n2c(=O)cc(C(F)(F)F)n(C)c2=O)ccc1Cl [Butafenacil] = 1320
